- system.name: BCL2 WT (Homo sapiens (Human), UniProt P10415)
- Sequence (P10415 other isoform, or with tags, fused parts or gaps): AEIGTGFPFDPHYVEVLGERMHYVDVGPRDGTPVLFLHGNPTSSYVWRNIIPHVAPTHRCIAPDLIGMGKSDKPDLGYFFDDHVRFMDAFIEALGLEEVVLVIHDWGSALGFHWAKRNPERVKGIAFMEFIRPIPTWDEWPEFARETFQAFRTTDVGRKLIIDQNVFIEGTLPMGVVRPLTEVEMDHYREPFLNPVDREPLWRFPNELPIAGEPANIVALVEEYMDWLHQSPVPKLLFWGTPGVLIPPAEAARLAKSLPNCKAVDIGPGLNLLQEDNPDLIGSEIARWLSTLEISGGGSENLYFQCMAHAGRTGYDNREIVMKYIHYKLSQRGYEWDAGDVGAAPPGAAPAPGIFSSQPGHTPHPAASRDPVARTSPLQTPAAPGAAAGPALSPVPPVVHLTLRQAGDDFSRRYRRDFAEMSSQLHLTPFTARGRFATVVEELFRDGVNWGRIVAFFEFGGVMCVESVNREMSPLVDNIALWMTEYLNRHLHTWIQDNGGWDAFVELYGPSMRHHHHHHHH
- test.details: TR-FRET competitive binding assay, BCL2 WT
- measurement.setup: Ki determined from IC50, read-out: TR_FRET EKI_Bcl2 WT
pKi: −log10 of the molar value.
assay.endpoint: pKi

molecule	pKi
Cc1c(N(C(=O)c2cc(-c3cc4c(cc3C(=O)N3Cc5ccccc5C[C@H]3CN3CCCCC3)CN(C(=O)Cc3ccc(OCCN5CCOC(C)C5)cc3F)CC4)n(C)c2C)c2ccc(O)cc2)cc(C#N)n1C (single isomer, unassigned) [Example 109]	10.40
CCN(C[C@@H]1Cc2ccccc2CN1C(=O)c1cc2c(cc1-c1cc(C(=O)N(c3ccc(O)cc3)c3cc(C#N)n(C)c3C)c(C)n1C)CCN(C(=O)Cc1ccc(OCCN3CCOCC3)cc1F)C2)C(C)C [Example 155]	10.40

The values you see were collected from patent US20250179047A1.
